Origin of the recorded values: patent US20210024640A1

Molecular target: T1, OX40 on HT1080 OX40 stable cell line (Homo sapiens (Human), UniProt P43489 29-277)
T1 sequence: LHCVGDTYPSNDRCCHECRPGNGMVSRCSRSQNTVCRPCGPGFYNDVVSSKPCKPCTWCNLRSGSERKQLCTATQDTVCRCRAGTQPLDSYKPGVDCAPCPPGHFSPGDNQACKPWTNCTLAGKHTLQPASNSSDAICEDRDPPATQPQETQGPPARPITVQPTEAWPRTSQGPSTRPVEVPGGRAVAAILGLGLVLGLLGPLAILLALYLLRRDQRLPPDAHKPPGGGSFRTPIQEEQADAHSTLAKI
Experiment: cell-based or functional assay
Returns: string. Value is Yes if measured HT1080 + OX40L Antagonist Assay IC50 is below 2 NM, and No if it is greater than or equal to it.

Examples with answers:
Dear colleague, could you confirm whether HT1080 + OX40L Antagonist Assay IC50 of murine antibody A6 (2G2E2D8) (antibody, V domains shown, also called MAb A6; Murine A6) VH: EVQLQQSGPELVKPGASVKMSCKASGYTFTSYVMHWVKQKPGQGLEWIGYINPYNDGTKYNEKFKGKATLTSDKSSSTAYMELSSLTSEDSAVYYCANYYGSNYAMDYWGQGTSVTVSS VL: DIQMTQTTSSLSASLGDRVTISCRASQDIRNYLNWYQQKPDGTVKLLIYYTSRLHSGVPSRFSGSGSGTDYSLTISNLEQEDIATYFCQQGNTLPWTFGGGTKLEIK falls below 2 NM? Thanks.
Yes

I'd appreciate it if you could check whether humanized Ab REMD 277 (VH2-1/VL2-2) (antibody, human IgG1, kappa, V domains shown) VH: EVQLVQSGAEVKKPGESLKISCKGSGYTFTSYVMHWVRQMPGKGLEWMGYINPYNDGTKYNEKFKGQVTISADKSISTAYLQWSSLKASDTAMYYCARYYGSNYAMDYWGQGTMVTVSS VL: EIVMTQSPATLSASPGERVTLSCRASQDIRNYLNWYQQKPGGAVRLLIYYTSRLHSGVPARFSGSGSGTDYTLTISSLEPEDYAVYFCQQGNTLPWTFGQGTKVEIKR has HT1080 + OX40L Antagonist Assay IC50 smaller than 2 NM.
Yes

Is 2 NM strictly greater than the binder's reported HT1080 + OX40L Antagonist Assay IC50? binder: murine-human chimeric antibody derived from murine antibody A6 (chimeric IgG) (antibody, V domains shown, also called chimeric OX40 Ab) VH: EVQLQQSGPELVKPGASVKMSCKASGYTFTSYVMHWVKQKPGQGLEWIGYINPYNDGTKYNEKFKGKATLTSDKSSSTAYMELSSLTSEDSAVYYCANYYGSNYAMDYWGQGTSVTVSS VL: DIQMTQTTSSLSASLGDRVTISCRASQDIRNYLNWYQQKPDGTVKLLIYYTSRLHSGVPSRFSGSGSGTDYSLTISNLEQEDIATYFCQQGNTLPWTFGGGTKLEIKR
No

Further cases:
Here's an entry: humanized Ab REMD 277.2 (VH2-1/VL5BM) (antibody, human IgG1, kappa, V domains shown) VH: EVQLVQSGAEVKKPGESLKISCKGSGYTFTSYVMHWVRQMPGKGLEWMGYINPYNDGTKYNEKFKGQVTISADKSISTAYLQWSSLKASDTAMYYCARYYGSNYAMDYWGQGTMVTVSS VL: DIQMTQSPSSLSASVGDRVTISCRASQDIRNYLNWYQQKPGKTVKLLIYYTSRLHSGVPSRFSGSGSGTDYTFTISSLQPEDIATYFCQQGNTLPWTFGGGTKLEIKR . Is its HT1080 + OX40L Antagonist Assay IC50 below 2 NM?
No

Does humanized Ab REMD 277.1 (VH2-1/VL2-1) (antibody, human IgG1, kappa, V domains shown) VH: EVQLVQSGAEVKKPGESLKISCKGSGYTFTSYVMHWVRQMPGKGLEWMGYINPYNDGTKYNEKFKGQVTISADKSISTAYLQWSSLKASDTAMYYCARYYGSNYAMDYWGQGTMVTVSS VL: EIVLTQSPATLSLSPGERATLSCRASQDIRNYLNWYQQKPGQAPRLLIYYTSRLHSGIPARFSGSGSGTDFTLTISSLEPEDFAVYYCQQGNTLPWTFGQGTKVEIKR have HT1080 + OX40L Antagonist Assay IC50 strictly under 2 NM?
Yes
